Target: UniProt:O42275
Sequence (O42275 whole entry): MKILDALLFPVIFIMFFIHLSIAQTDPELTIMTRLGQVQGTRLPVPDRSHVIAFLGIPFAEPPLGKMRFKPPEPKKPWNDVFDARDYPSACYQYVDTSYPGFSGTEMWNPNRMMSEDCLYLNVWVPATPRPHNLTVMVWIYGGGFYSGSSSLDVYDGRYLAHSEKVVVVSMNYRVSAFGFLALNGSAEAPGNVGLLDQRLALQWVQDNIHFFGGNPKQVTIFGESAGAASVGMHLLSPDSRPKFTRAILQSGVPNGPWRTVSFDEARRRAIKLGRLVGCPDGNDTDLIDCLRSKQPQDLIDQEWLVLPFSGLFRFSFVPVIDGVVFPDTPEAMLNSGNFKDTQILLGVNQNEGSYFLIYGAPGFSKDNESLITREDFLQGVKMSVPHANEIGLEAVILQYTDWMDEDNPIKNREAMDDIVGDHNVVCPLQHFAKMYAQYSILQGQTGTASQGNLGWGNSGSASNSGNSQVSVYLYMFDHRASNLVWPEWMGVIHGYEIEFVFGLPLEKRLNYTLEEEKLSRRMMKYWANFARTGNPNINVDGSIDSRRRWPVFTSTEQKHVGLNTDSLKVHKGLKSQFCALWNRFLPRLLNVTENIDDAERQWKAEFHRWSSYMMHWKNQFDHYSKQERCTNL
Settings: read-out: IC50
Description: Inhibition of electric eel AChE by Ellman's method
READOUT NAME: IC50 (µM)
Give bare numbers, in µM.

{"SMILES CODE": "CC(=O)N(CCCN=c1c2ccccc2nc2n1CCC2)CCC/N=c1\\c2ccccc2nc2n1CCC2", "IC50 / µM": 0.331}
{"SMILES CODE": "CC(=O)N(CCCCN=c1c2ccccc2nc2n1CCC2)CCCN=c1c2ccccc2nc2n1CCC2", "IC50 / µM": 0.0209}
{"SMILES CODE": "c1ccc2c(=NCCCCCCCCN=c3c4ccccc4nc4n3CCCCCC4)n3c(nc2c1)CCCCCC3", "IC50 / µM": 14.4}
{"SMILES CODE": "C=C(C)C(=O)N(CCCCN=c1c2ccccc2nc2n1CCCCCC2)CCCN=c1c2ccccc2nc2n1CCCCCC2", "IC50 / µM": 0.153}
{"SMILES CODE": "CC(=O)NCC(=O)N(CCCCN=c1c2ccccc2nc2n1CCCCCC2)CCCN=c1c2ccccc2nc2n1CCCCCC2", "IC50 / µM": 0.0756}
{"SMILES CODE": "CCCCC(=O)N(CCCCN=c1c2ccccc2nc2n1CCCCCC2)CCCN=c1c2ccccc2nc2n1CCCCCC2", "IC50 / µM": 1.06}

Provide each entry's IC50 from the list below.
1. CN(CCCCN=c1c2ccccc2nc2n1CCCCCC2)CCCN=c1c2ccccc2nc2n1CCCCCC2
2. C=C(C)C(=O)N(CCCCN=c1c2ccccc2nc2n1CCC2)CCCN=c1c2ccccc2nc2n1CCC2

A.
1: 0.606; 2: 0.0067

Data provenance is ChEMBL document CHEMBL1667814.
